Reference source for all entries: PubChem BioAssay (NCI)

Experiment Description: NCI Yeast Anticancer Drug Screen. Data for the sgs1 mgt1 strain (AID 161);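 also: 0% = growth of cultures given vehicle only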
Experimental Conditions: S. cerevisiae sgs1 mgt1 strain, at 50.0 µM
The panel holds about 79,000 compounds, 15% with a hit somewhere; the sample as a whole holds those more often. Active and inactive are the calls of the source. Rule as the data show it: active = growth inhibition above about 70%; inactive = the rest.
A correct response names exactly one class from true (active), false (inactive)

Exercise: Name the outcome recorded for C=CCNC(=O)ON1C(=O)CCC1=O in the assay.
Solution: false

Exercise: Name the outcome recorded for O=C(C(CO)c1ccccc1)N1CCOCC1 (stereo not given) in the assay.
Solution: false

Exercise: Name the outcome recorded for COc1ccc(C(Nc2ccccn2)c2cc(C(C)(C)C)cc(C(C)(C)C)c2O)cc1 (stereo not given) in the assay.
Solution: false

Exercise: Name the outcome recorded for CCCCNc1cccc2ccccc12 in the assay.
Solution: false

Exercise: Name the outcome recorded for Cc1ccc(/C(C#N)=C/c2ccccc2)cc1 in the assay.
Solution: false

Exercise: Name the outcome recorded for O=S(=O)(Nc1ccnn1-c1ccccc1)c1ccc(NC(=S)Nc2ccccc2)cc1 in the assay.
Solution: false

Exercise: Name the outcome recorded for Cc1cc(C)cc(C(=O)N=C(c2ccncc2)c2nc(-c3ccccc3)oc2O)c1 in the assay.
Solution: false

Exercise: Name the outcome recorded for CCOC(=O)NNC(=O)NC12CC3CC(CC(C3)C1)C2 in the assay.
Solution: false

Exercise: Name the outcome recorded for CC1(C)C2CC3C(=CCCC3C(=O)O)C1C2 (stereo not given) in the assay.
Solution: false

Exercise: Name the outcome recorded for Cc1cccc2sc(=S)[nH]c12 in the assay.
Solution: false

Exercise: Name the outcome recorded for CN(C)CCNc1nnc(NCCN(C)C)c2cc3ccccc3cc12 in the assay.
Solution: false

Exercise: Name the outcome recorded for O=C(O)C1CC1(c1ccccc1)c1ccccc1 (stereo not given) in the assay.
Solution: false

Exercise: Name the outcome recorded for C1=CCC(C(Nc2nncs2)Nc2nncs2)CC1 (stereo not given) in the assay.
Solution: false

Exercise: Name the outcome recorded for CC1=Nn2c(nnc2-c2ccc(Cl)cc2)NC(C)(C)C1 in the assay.
Solution: false

Exercise: Name the outcome recorded for COc1ccc2cc(NC(=O)N/N=C\c3ccc(Cl)cc3)ccc2c1 in the assay.
Solution: false

Exercise: Name the outcome recorded for COc1cccc(C2CC(c3cc(OC)c(OC)c(OC)c3)CC(c3cccc(OC)c3)N2)c1 (stereo not given) in the assay.
Solution: false

Exercise: Name the outcome recorded for Cc1cc(=O)[nH]c2ccc(-c3ccc4[nH]c(=O)cc(C)c4c3)cc12 in the assay.
Solution: false

Exercise: Name the outcome recorded for CC12C(=O)OC(=O)C1C1C=CC2C1 (stereo not given) in the assay.
Solution: false

Exercise: Name the outcome recorded for COc1ccc(N)nn1 in the assay.
Solution: false

Exercise: Name the outcome recorded for O=C(NC1(C(=O)O)CCCC1)C(F)(F)F in the assay.
Solution: false

Exercise: Name the outcome recorded for O=[N+]([O-])c1ccc(N=NNc2ccc([N+](=O)[O-])cc2)cc1 in the assay.
Solution: false

Exercise: Name the outcome recorded for CC1=NN(C(=O)Cc2ccccc2)C(=O)/C1=C\c1ccc([N+](=O)[O-])cc1 in the assay.
Solution: false

Exercise: Name the outcome recorded for O=C(O)c1cc2ccccc2c2cc3ccccc3cc12 in the assay.
Solution: false

Exercise: Name the outcome recorded for [Cu+2].[Cu+2].[O-]c1ccccc1C=Nc1ccccc1[O-].[O-]c1ccccc1C=Nc1ccccc1[O-] in the assay.
Solution: false

Exercise: Name the outcome recorded for S=C(S)N1CCN(c2ccc(Cl)c(Cl)c2)CC1 in the assay.
Solution: false

Exercise: Name the outcome recorded for CC1=C(C#N)C(C)(C)c2ccccc21 in the assay.
Solution: false

Exercise: Name the outcome recorded for CC(C)(C)c1ccc(Oc2nc(Oc3ccc(C(C)(C)C)cc3)nc(Oc3ccc(C(C)(C)C)cc3)n2)cc1 in the assay.
Solution: false

Exercise: Name the outcome recorded for O=C(Cc1c[nH]c2ccccc12)N/N=C/c1ccccc1[N+](=O)[O-] in the assay.
Solution: false

Exercise: Name the outcome recorded for Cc1cc2nc3c(C(O)C(O)C(O)CO)nn(-c4ccccc4)c3nc2cc1C (stereo not given) in the assay.
Solution: false

Exercise: Name the outcome recorded for COc1ccc(C(=O)N2CCN(C)CC2)cc1OC in the assay.
Solution: false

Exercise: Name the outcome recorded for CC1=CC(=Nc2ccc(N(C)C)cc2)C(C)=CC1=O in the assay.
Solution: false

Exercise: Name the outcome recorded for O=[N+]([O-])C(=C(N1CCOCC1)N1CCOCC1)/C(Cl)=C(\Cl)Br in the assay.
Solution: false

Exercise: Name the outcome recorded for CC12CCC3C(CCC4CCCCC43C)C1CC/C2=N\O (stereo not given) in the assay.
Solution: true

Exercise: Name the outcome recorded for COc1c(Cl)cc(NC(=S)C#N)cc1Cl in the assay.
Solution: false

Exercise: Name the outcome recorded for CC(=O)Nc1ccc(O)c(C(=O)O)c1 in the assay.
Solution: false

Exercise: Name the outcome recorded for CN=c1ss/c(=N\C(=S)N(C)C)n1C in the assay.
Solution: false

Exercise: Name the outcome recorded for O=C(NN1C(=O)C(Cl)C1c1cccc([N+](=O)[O-])c1)c1ccccc1O (stereo not given) in the assay.
Solution: false

Exercise: Name the outcome recorded for O=C(O)CSc1n[nH]c(-c2ccco2)n1 in the assay.
Solution: false

Exercise: Name the outcome recorded for CCC(C)C1NC(=S)N(c2ccccc2)C1=O (stereo not given) in the assay.
Solution: false

Exercise: Name the outcome recorded for CCOC(=O)C(O)(NC(=O)Nc1ccc(F)cc1)C(F)(F)F (stereo not given) in the assay.
Solution: false

Exercise: Name the outcome recorded for CCN(CC)CCN(CC)CC(=O)Nc1ccccc1Cl in the assay.
Solution: false

Exercise: Name the outcome recorded for O=C(CCN1C(=O)c2ccccc2C1=O)NCS(=O)(=O)O in the assay.
Solution: false

Exercise: Name the outcome recorded for OCCOCCNc1ncnc2cc(Cl)ccc12 in the assay.
Solution: false

Exercise: Name the outcome recorded for C/C=C/Cc1ccccc1O in the assay.
Solution: false

Exercise: Name the outcome recorded for COC1=C(O)C(=O)C(OC)=C(O)C1=O in the assay.
Solution: false

Exercise: Name the outcome recorded for O=C(C=C1CCCCC1)c1ccccc1 in the assay.
Solution: false

Exercise: Name the outcome recorded for CCCCCCc1cc2cc(C(=O)Nc3nc(C45CC6CC(CC(C6)C4)C5)cs3)c(=O)oc2cc1O in the assay.
Solution: false

Exercise: Name the outcome recorded for COC(=O)C1(F)C(=O)NC(=O)NC1OC (stereo not given) in the assay.
Solution: false

Exercise: Name the outcome recorded for Cc1ccc(S(=O)(=O)c2ccccn2)cc1 in the assay.
Solution: false

Exercise: Name the outcome recorded for COc1ccc(/C=C2\C=Cc3ccccc32)cc1OC in the assay.
Solution: false

###

Experiment Description: NCI Yeast Anticancer Drug Screen. Data for the mec2-1 strain (AID 157)
Experimental Conditions: S. cerevisiae mec2-1 strain, at 50.0 µM, stronger effect = higher value
Compounds without any hit were thinned out: in the full panel of roughly 79,000, 15% have a hit. Calls of active or inactive are those of the source. No stated cut-off is given here; in the data, active means growth inhibition above about 70%; inactive means the rest.
Measured Quantity: growth inhibition

Exercise: Determine from records and report growth inhibition for Cc1nc(N/N=C/c2ccccc2Cl)[nH]c(=O)c1CCO
Solution: -2.8% (inactive)

Exercise: Determine from records and report growth inhibition for CC1CC(c2ccccc2)=Nc2ccccc2S1 (configuration not stated)
Solution: 12.9% (inactive)

Exercise: Determine from records and report growth inhibition for COc1ccc(C(=O)CC2=NC3NN(c4ccccc4)C(=O)C3=C2CC(=O)c2ccc(OC)cc2)cc1 (configuration not stated)
Solution: 32.1% (inactive)

Exercise: Determine from records and report growth inhibition for NCCNC(=O)CCC(CN(CC(=O)O)CC(=O)O)N(CC(=O)O)CC(=O)O (configuration not stated)
Solution: 69.7% (inactive)

Exercise: Determine from records and report growth inhibition for O=C(NN1CCCCC1)NN1CCCCC1
Solution: -2.5% (inactive)

Exercise: Determine from records and report growth inhibition for CCOC(=O)C1C(c2ccc(Cl)cc2Cl)NC(c2ccc(C)cc2)C(C(=O)OC)S1(=O)=O (configuration not stated)
Solution: -9.8% (inactive)

Exercise: Determine from records and report growth inhibition for OCC1OC(n2cc3ccccc3n2)C(O)C1O (configuration not stated)
Solution: 4.85% (inactive)

Exercise: Determine from records and report growth inhibition for Cc1coc2c1C1OC(=O)C3(C/C=C\C(C)C2)OC13 (configuration not stated)
Solution: -32.6% (inactive)

Exercise: Determine from records and report growth inhibition for OCC(CO)(CO)CO
Solution: -0.7% (inactive)

Exercise: Determine from records and report growth inhibition for CC(C)(C)NC(=O)NCc1cccc(Cl)c1
Solution: -19.6% (inactive)

Exercise: Determine from records and report growth inhibition for CCOc1nc(N)nc(C)c1N=Nc1ccc(C)cc1
Solution: -8.45% (inactive)

Exercise: Determine from records and report growth inhibition for C/C(=C\C(=N\Nc1nc(C)cc(=O)[nH]1)c1ccccc1)c1ccccc1
Solution: -11.4% (inactive)
